The following compounds are listed with their measured IVIS values.
system: mice; assay: In vivo delivery of FLuc-mRNA lipid nanoparticles in mice, in vivo imaging (IVIS); settings: Fluc-mRNA LNP; route IV; organ: spleen; formulation, molar ratio and N/P as in the table

Example compounds with recorded IVIS:
Compound | IVIS
CCCCCCCCC(CCCCCC)C(=O)OCCCCCCNC(=O)C(O)CN(CCN(C)CCN(CC(O)C(=O)NCCCCCCOC(=O)C(CCCCCC)CCCCCCCC)CC(O)C(=O)NCCCCCCOC(=O)C(CCCCCC)CCCCCCCC)CC(O)C(=O)NCCCCCCOC(=O)C(CCCCCC)CCCCCCCC (centres unmarked) | 2.64E+07
CCCCCCC(CCCCCC)C(=O)NCCOC(=O)C(O)CN(CCCN(C)CCCN(CC(O)C(=O)OCCNC(=O)C(CCCCCC)CCCCCC)CC(O)C(=O)OCCNC(=O)C(CCCCCC)CCCCCC)CC(O)C(=O)OCCNC(=O)C(CCCCCC)CCCCCC (centres unmarked) | 5.05E+07
CCCCCCCC(CCCCCCC)OC(=O)CCCNC(=O)C(O)CN(CCCN(C)CCCN(CC(O)C(=O)NCCCC(=O)OC(CCCCCCC)CCCCCCC)CC(O)C(=O)NCCCC(=O)OC(CCCCCCC)CCCCCCC)CC(O)C(=O)NCCCC(=O)OC(CCCCCCC)CCCCCCC (centres unmarked) | 1.08E+08
CCCCCCCCCCCCCCN(C)C(=O)C(O)CN(CCCN(CC(O)C(=O)N(C)CCCCCCCCCCCCCC)CC(O)C(=O)N(C)CCCCCCCCCCCCCC)CCCN(CC(O)C(=O)N(C)CCCCCCCCCCCCCC)CC(O)C(=O)N(C)CCCCCCCCCCCCCC (centres unmarked) | 5.03E+06
CCCCCCCC(CCCCCCC)OC(=O)CCCNC(=O)C(O)CN(CCN(C)CCN(CC(O)C(=O)NCCCC(=O)OC(CCCCCCC)CCCCCCC)CC(O)C(=O)NCCCC(=O)OC(CCCCCCC)CCCCCCC)CC(O)C(=O)NCCCC(=O)OC(CCCCCCC)CCCCCCC (centres unmarked) | 2.01E+08
CCCCCCCCC(CCCCCC)C(=O)OCCCCCCNC(=O)C(O)CN(CCCN(C)CCCN(CC(O)C(=O)NCCCCCCOC(=O)C(CCCCCC)CCCCCCCC)CC(O)C(=O)NCCCCCCOC(=O)C(CCCCCC)CCCCCCCC)CC(O)C(=O)NCCCCCCOC(=O)C(CCCCCC)CCCCCCCC (centres unmarked) | 1.44E+07

Request: Report IVIS for CCCCCCCCC(CCCCCC)C(=O)OCCCCNC(=O)C(O)CN(CCCN(CC(O)C(=O)NCCCCOC(=O)C(CCCCCC)CCCCCCCC)CC(O)C(=O)NCCCCOC(=O)C(CCCCCC)CCCCCCCC)CCCN(CC(O)C(=O)NCCCCOC(=O)C(CCCCCC)CCCCCCCC)CC(O)C(=O)NCCCCOC(=O)C(CCCCCC)CCCCCCCC (centres unmarked) please.
Result: 7.04E+07

Request: For the compound CCCCCCCCCCOC(=O)CCCNC(=O)C(O)CN(CCN(C)CCN(CC(O)C(=O)NCCCC(=O)OCCCCCCCCCC)CC(O)C(=O)NCCCC(=O)OCCCCCCCCCC)CC(O)C(=O)NCCCC(=O)OCCCCCCCCCC (centres unmarked) , what IVIS is on record?
Result: 4.18E+06

Request: For the compound CCCCCCC(CCCCCC)C(=O)NCCNC(=O)C(O)CN(CCN(C)CCN(CC(O)C(=O)NCCNC(=O)C(CCCCCC)CCCCCC)CC(O)C(=O)NCCNC(=O)C(CCCCCC)CCCCCC)CC(O)C(=O)NCCNC(=O)C(CCCCCC)CCCCCC (centres unmarked) , what IVIS is on record?
Result: 7.18E+07

Request: Item CCCCCCCCC(CCCCCC)C(=O)NCCOC(=O)C(O)CN(CCCN(C)CCCN(CC(O)C(=O)OCCNC(=O)C(CCCCCC)CCCCCCCC)CC(O)C(=O)OCCNC(=O)C(CCCCCC)CCCCCCCC)CC(O)C(=O)OCCNC(=O)C(CCCCCC)CCCCCCCC (centres unmarked) has what recorded IVIS?
Result: 6.08E+07

Request: Consider the compound shown here: CCCCCCC(CCCCCC)C(=O)OCCCCNC(=O)C(O)CN(CCCN(CC(O)C(=O)NCCCCOC(=O)C(CCCCCC)CCCCCC)CC(O)C(=O)NCCCCOC(=O)C(CCCCCC)CCCCCC)CCCN(CC(O)C(=O)NCCCCOC(=O)C(CCCCCC)CCCCCC)CC(O)C(=O)NCCCCOC(=O)C(CCCCCC)CCCCCC (centres unmarked) What is its recorded IVIS?
Result: 3.07E+07

Request: I am curious: what IVIS value has been reported for CCCCCCCCN(C)C(=O)C(O)CN(CCCN(CC(O)C(=O)N(C)CCCCCCCC)CC(O)C(=O)N(C)CCCCCCCC)CCCN(CC(O)C(=O)N(C)CCCCCCCC)CC(O)C(=O)N(C)CCCCCCCC (centres unmarked) ?
Result: 3.86E+07

Request: Give its IVIS value. Item: CCCCCCCC(CCCCCCC)OC(=O)CCCNC(=O)C(O)CN(CCCN(CC(O)C(=O)NCCCC(=O)OC(CCCCCCC)CCCCCCC)CC(O)C(=O)NCCCC(=O)OC(CCCCCCC)CCCCCCC)CCCN(CC(O)C(=O)NCCCC(=O)OC(CCCCCCC)CCCCCCC)CC(O)C(=O)NCCCC(=O)OC(CCCCCCC)CCCCCCC (centres unmarked)
Result: 1.24E+08

Request: Need IVIS of CCCCCCCCCCCCCCN(C)C(=O)C(O)CN(CCCN(C)CCCN(CC(O)C(=O)N(C)CCCCCCCCCCCCCC)CC(O)C(=O)N(C)CCCCCCCCCCCCCC)CC(O)C(=O)N(C)CCCCCCCCCCCCCC (centres unmarked) , thanks.
Result: 2.13E+06

Request: Which IVIS is listed for CCCCCCCCCCCCCCN(C)C(=O)C(O)CN(CCN(C)CCN(CC(O)C(=O)N(C)CCCCCCCCCCCCCC)CC(O)C(=O)N(C)CCCCCCCCCCCCCC)CC(O)C(=O)N(C)CCCCCCCCCCCCCC (centres unmarked) ?
Result: 2.63E+05

Request: Which measured IVIS value corresponds to CCCCCCC(CCCCCC)C(=O)NCCOC(=O)C(O)CN(CCCN(CC(O)C(=O)OCCNC(=O)C(CCCCCC)CCCCCC)CC(O)C(=O)OCCNC(=O)C(CCCCCC)CCCCCC)CCCN(CC(O)C(=O)OCCNC(=O)C(CCCCCC)CCCCCC)CC(O)C(=O)OCCNC(=O)C(CCCCCC)CCCCCC (centres unmarked) ?
Result: 9.96E+06

Request: Query: IVIS; subject: CCCCCCCCN(C)C(=O)C(O)CN(CCN(C)CCN(CC(O)C(=O)N(C)CCCCCCCC)CC(O)C(=O)N(C)CCCCCCCC)CC(O)C(=O)N(C)CCCCCCCC (centres unmarked)
Result: 2.02E+06

Numbers sourced from patent US12233161B1.
